system: UniProtKB P31389
Sequence (P31389 whole entry): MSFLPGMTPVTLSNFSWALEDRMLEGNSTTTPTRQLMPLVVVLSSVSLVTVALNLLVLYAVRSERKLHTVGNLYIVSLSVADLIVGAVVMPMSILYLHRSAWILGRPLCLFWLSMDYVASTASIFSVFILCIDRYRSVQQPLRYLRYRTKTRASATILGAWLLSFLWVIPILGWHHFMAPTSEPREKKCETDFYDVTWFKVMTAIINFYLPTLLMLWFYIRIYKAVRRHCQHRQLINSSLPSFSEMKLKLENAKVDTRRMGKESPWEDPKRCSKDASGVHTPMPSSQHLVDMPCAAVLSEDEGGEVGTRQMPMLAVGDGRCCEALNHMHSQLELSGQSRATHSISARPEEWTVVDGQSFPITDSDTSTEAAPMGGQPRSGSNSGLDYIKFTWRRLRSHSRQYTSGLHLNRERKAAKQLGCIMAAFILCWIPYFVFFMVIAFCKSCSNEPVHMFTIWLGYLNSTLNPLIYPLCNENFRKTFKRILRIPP
testProtocol: cell-based
runConditions: isolated ileum of the guinea pig; read-out: pA2 ileum (H1-antagonistic effect) (converted)
Source text: The new class of structures according to the invention has both an H1 -antagonistic and an H2 -agonistic active component. […] One recognized method for determining H1 -antagonistic activity is the determination of the pA2 -values in vitro (O. ARUNLAKSHANA and H. O. SCHILD (1959) Some quantitative uses of drug antagonists--Br. J. Pharmacol. Chemother. 14, 48-58). Pharmacological Data (determined on the isolated atrium or ileum of the guinea-pig) […]
Counter-ions that a name gives are not always drawn.
Binarize Kb at 300 nM; below is true, at or above is false.

-- ask Bench note: check whether N=C(NCCCc1c[nH]cn1)NCCC(c1ccccc1)c1ccccc1 [Example 78] shows Kb below 300 nM
-- reply true

-- ask Does this compound meet the criterion Kb < 300 nM? N=C(NCCCc1c[nH]cn1)NCCN(c1ccccc1)c1ccc(F)cc1 [Example 146, trihydrochloride]
-- reply false

-- ask I wonder whether CC(CSCc1ccccn1)NC(=N)NCCCc1c[nH]cn1 (stereo not drawn) [Example 121] has Kb below 300 nM. Can you tell?
-- reply false

-- ask Item NC(=NCCC(c1ccc(F)cc1)c1ccccn1)NCCCc1cnc[nH]1 (stereo not drawn) [Example 133] : Kb beneath 300 nM, strictly?
-- reply true

-- ask Report whether reported Kb is lower than 300 nM (strictly) for N=C(NCCCc1c[nH]cn1)NCCC(c1ccccn1)c1cccs1 (stereo not drawn) [Example 134]
-- reply true

-- ask hey, is Kb for N=C(NCCCc1c[nH]cn1)NCCN(Cc1ccccc1)c1ccc(F)cc1 [Example 102, trihydrochloride] lower than 300 nM or not?
-- reply true

-- ask Problem: For the compound N=C(NCCCCc1cccnc1)NCCCc1c[nH]cn1 [Example 12, trihydrochloride] , is Kb under 300 nM?
-- reply false

-- ask Please let me know if Cc1[nH]c(CN(C)C)nc1CSCCNC(=N)NCCCc1c[nH]cn1 [Example 51] shows Kb below 300 nM.
-- reply false

-- ask Dear reviewer, please state whether N=C(NCCCc1c[nH]cn1)NCCN(Cc1ccc(Cl)cc1)c1ccccn1 [Example 141] has Kb strictly beneath 300 nM.
-- reply true

-- ask Does N=C(NCCCc1c[nH]cn1)NCCC(c1ccc(Br)cc1)c1ccccn1 (stereo not drawn) [Example 131] have Kb strictly under 300 nM?
-- reply false

-- ask # TODO verify Kb < 300 nM strictly for this compound: N=C(NCCCc1c[nH]cn1)NCCSCc1cccs1 [Example 105]
-- reply false

-- ask Lab log: compare recorded Kb with 300 nM; is it strictly lower for NC(=NCCN(Cc1ccc(F)cc1)c1ccccn1)NCCCc1c[nH]cn1 [Example 143] ?
-- reply true

-- ask I'd appreciate it if you could check whether N=C(NCCCc1c[nH]cn1)NCCN(c1ccccc1)c1ccccc1 [Example 145, trihydrochloride] has Kb smaller than 300 nM.
-- reply false

-- ask Record Cc1[nH]cnc1CCCNC(=N)NCCC(c1ccccc1)c1ccccc1 [Example 96] : is its Kb strictly below 300 nM?
-- reply true

-- ask # strict comparison: is reported Kb < 300 nM? input = N=C(NCCCc1c[nH]cn1)NCCC(c1ccccc1)c1ccccn1 (stereo not drawn) [Example 127]
-- reply true

-- ask For this compound, is Kb lower than 300 nM? CC(SCCNC(=N)NCCCc1c[nH]cn1)c1ccccc1 (stereo not drawn) [Example 60]
-- reply false

-- ask Is Kb of Cc1ccc(N(C)CCCNC(=N)NCCCc2c[nH]cn2)nc1 [Example 10, trihydrochloride] strictly below 300 nM?
-- reply true

-- ask Does the reported Kb of the following compound sit strictly below 300 nM? N=C(NCCCc1c[nH]cn1)NCCCC(c1ccccc1)c1ccccc1 [Example 97]
-- reply true

-- ask Lab note: confirm whether the reported Kb for this compound is below 300 nM, equality not counting. compound: N=C(NCCCc1c[nH]cn1)NCCN(c1ccc(F)cc1)c1ccccn1 [Example 148, trihydrochloride]
-- reply true

-- ask I'd appreciate it if you could check whether N=C(NCCCc1c[nH]cn1)NCCN(Cc1ccccc1)c1ccc(Br)cc1 [Example 104, trihydrochloride] has Kb smaller than 300 nM.
-- reply true

-- ask Please state whether Kb is below 300 nM for COc1ccc(CN(CCN=C(N)NCCCc2c[nH]cn2)c2ccccn2)cc1 [Example 142]
-- reply true

Source: patent US5021431A
